The origin of these recorded values is patent US20240092922A1.

Target or test system: T1, Histidine-tagged human 4-1BB protein (h4-1BB-His) (human, UniProt Q07011 24-186)
T1 construct: not shown: histidine tag
Experiment: SPR (Biacore T200), antibody on Protein A chip, h4-1BB-His injected;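 further: dissociation phase followed for 300 s, Kd derived as koff divided by kon from the kinetic fit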

Binder	Result unit	koff
6A5-H1K4-IgG2 (antibody, V domains shown, humanized) VH: QVQLVQSGAEVKKPGSSVKLSCKASGYTFSSYWINWVRQAPGQGLEWMGNIYPSDSYTNYNQKFKDRVTLTVDKSTSTAYMELSSLRSEDTAVYYCTRTWEFYYDSVFDYWGQGTLVTVSS VL: DIQMTQSPSSLSASLGERVTITCKASQDINSYLSWFQQKPGKAPKTLIYRANRLVDGVPSRFSGSGSGQDYTLTISSLQPEDIATYYCLQYDELPPTFGGGTKLEIK	s⁻¹	0.000693
5F9-H2K2-IgG4 (antibody, V domains shown, humanized) VH: QVQLKESGPGLVKPSETLSLTCTVSGFSLTTYDISWVRQPPGKGLEWLGVIWTGGGTNYNSSFMSRVTISKDTSKNQVSLKLSSVTAADTAIYYCERVDYWGQGTTVTVSS VL: DVVMTQSPLSLPVTLGQPASISCRSSQSLVHSNGNTYLHWFQQRPGQSPKLLIYKVSNRFSGVPDRFSGSGSGTAFTFKISRVEAEDVGVYYCSQNTHVPWTFGGGTKVEIK	s⁻¹	0.00261
